Tested on: NIH3T3
Assay: Cytotoxic Profiling of Annotated Libraries Using Quantitative High-Throughput Screening (AID 1296008); note: % is set by controls: 0 for no effect and ±100 for the full control effect; nearly all actives have a fitted effect of over 60% in size
Details: Five cell lines viability, CellTiter-Glo ATP luminescence, 48-72 h; hits give low values
Inconclusive results are not listed.
max response values, listed per item
Dear colleague, please return just the value in %, with no unit written.

Would you please look over these solved cases?
INSERT INTO results (compound, measured_value) VALUES
  ('OCC(O)C(c1c[nH]c2ccccc12)c1c[nH]c2ccccc12 (stereo not drawn)', 1.42),
  ('CC1(C)CC2C3=CCC4[C@@]5(C)CC[C@H](OC6OCC(O)C(OC7OC(CO)C(O)C(O)C7O)C6O)C(C)(C)C5CC[C@@]4(C)[C@]3(C)C[C@H](O)[C@@]2(CO)[C@H](OC(=O)c2ccccc2)C1 (stereo partly drawn)', -2.6),
  ('Cc1ncc([N+](=O)[O-])n1C[C@H](O)CN1CCOCC1', -3.55);

Report max response for COc1cc(/C=C/C(=O)O[C@@H]2O[C@H](CO)[C@@H](O)[C@H](O)[C@H]2O)ccc1O please.
0.679

Note, next up: O=C(OCC1OC(Oc2ccc(O)cc2COC(=O)C2(O)C(O)CCC(=O)C2OC(=O)C2C=CCC2)C(OC(=O)C2C=CCC2)C(O)C1O)C1C=CCC1 (stereo not drawn)
3.99

Note, next up: COc1c2cc(c(O)c1OC)CCCCC(O)CCc1ccc(O)c-2c1 (stereo not drawn)
-4.18

Note, next up: COc1ccnc2[nH]cc(C(=O)C(=O)N3CCN(C(=O)c4ccccc4)CC3C)c12 (stereo not drawn)
-4.76

Note, next up: COc1cc(O)cc(O[C@@H]2O[C@H](CO)[C@@H](O[C@@H]3OC[C@](O)(CO)[C@H]3O)[C@H](O)[C@H]2O)c1OC
2.33

---

max response values, listed per item
System: KB-3-1
Assay: Cytotoxic Profiling of Annotated Libraries Using Quantitative High-Throughput Screening (AID 1296008); note: % is set by controls: 0 for no effect and ±100 for the full control effect; nearly all actives have a fitted effect of over 60% in size
Conditions: Five cell lines viability, CellTiter-Glo ATP luminescence, 48-72 h; hits give low values
Records with an inconclusive call do not appear.
Dear colleague, please return just the value in %, with no unit written.

Would you please look over these solved cases?
INSERT INTO assay_data (compound, system_tested, measured_value) VALUES
  ('CN1CCCC1Cc1c[nH]c2ccc(CCS(=O)(=O)c3ccccc3)cc12 (stereo not given)', 'KB-3-1', 7.71),
  ('CCN=C1N[C@@H]2[C@@H](O)[C@H](O)[C@@H](CO)O[C@@H]2S1', 'KB-3-1', 6.7);

Now examine the next entry.
API: value(readout=max response, system=KB-3-1) for record N[C@@H](CC(=O)Nc1ccc(Oc2cc(F)c(F)cc2Br)cc1)C(=O)O
-3.53

---

max response values, listed per item
Test system: HEK293
Test: Cytotoxic Profiling of Annotated Libraries Using Quantitative High-Throughput Screening (AID 1296008); note: % is set by controls: 0 for no effect and ±100 for the full control effect; nearly all actives have a fitted effect of over 60% in size
Conditions: Five cell lines viability, CellTiter-Glo ATP luminescence, 48-72 h; hits give low values
Inconclusive results are not listed.
Dear colleague, please return just the value in %, with no unit written.

Report max response for CC(C)=CCC/C(C)=C/CO[C@@H]1O[C@H](CO[C@@H]2O[C@@H](CO)[C@H](O)[C@H]2O)[C@@H](O)[C@H](O)[C@H]1O please.
-7.37

Note, next up: CC1=C(C(=O)OC2OC(COC3OC(CO)C(O)C(O)C3O)C(O)C(O)C2O)C(C)(C)CCC1 (centres undefined)
1.47

Note, next up: CC(C)(O)C1CC=C(C(=O)OC[C@H]2O[C@@H](Oc3cc(C(=O)O)cc(O)c3O)[C@H](O)[C@@H](O)[C@@H]2O)CC1 (some centres undefined)
3.21

Note, next up: Cc1ccc([C@@H]2CC=C(C(=O)O)[C@H](c3ccc(C(C)(C)C)cc3)N2S(=O)(=O)c2ccc(C)cc2)cc1
-30.1
